# experimental.protocol: yeast display, Sf9 membrane polyspecificity reagent, FACS + sequencing; frameworks hold sequencing errors
measured.quantity: polyreactivity (PSR sort gate)

biosequence: QVQLVESGGGLVQAGGSLRLSCAASGSIFGNNAMGWYRQAPGKERELVAAISGSGGTRYADSVKGRFTISRDNAKNTVYFQLNSLKPEDTAVYYCSADDSWGGFHSPKAIGYDYWGQGTQVTVSS
polyreactivity (PSR sort gate): low polyreactivity
--
biosequence: QVQLVESGGGLVQAGGSLRLSCAASGRIFPYNAMGWYRQAPGKERELVAAISFGGGRTYYADSVKGRFTISRDNAKNTVYLQMNRLKPEDTAVYYCNTASPQDIVFRVFYGGDYWGQGTQVTVSS
polyreactivity (PSR sort gate): low polyreactivity
--
biosequence: QVQLVESGGGLVQAGGSLRLSCSASGRTFIVYAMGWYRQAPGKERELVAAITTSVGRTYYADSVKGRFTISRDNAKNTVYLQMNSLKPEDTAVYYCAADRLDGYSEYYYWGQGTQVTVSS
polyreactivity (PSR sort gate): low polyreactivity
--
biosequence: QVQLVESGGGLVQAGGSLRLSCAASGRTFNTNAMGWYRQAPGKERELVAAISGSGVRTYYADSVKGRFTISRDNAKNTVYLQMNSLKPEDTAVYYCAARGQGGPYNYWGQGTQVTVSS
polyreactivity (PSR sort gate): high polyreactivity
--
biosequence: QVQLVESGGGLVQAGGSLRLSCAASGFTFAVYTMGWYRQAPGKERELVAAITGSGGRTYYADSVKGRFTISRDNAKNTVYLQMNSLKPEDTAVYYCNAVQRSSRQTFEYCGQGTQVTVSS
polyreactivity (PSR sort gate): low polyreactivity
--
biosequence: QVQLVESGGGLLQAGGSLRLSCAASGSISGYYAMGWYRQAPGKERELVASIRYTGARTYYADSVKGRFTISRDNAKNTVYLQMNSLKPEDTAVYYCAADVKRDRVWGGDYWGQGTQVTVSS
polyreactivity (PSR sort gate): low polyreactivity
--
biosequence: QVQLVESGGGLVQAGGSLRLICAASGFTFGEYAMGWYRQAPGKERDFVASISWDGASTYYADSVKGRFTISRDNAKNTVYLQMKSLKPEDTAVYYCAATRYYSFWGQGTQVTVSS
polyreactivity (PSR sort gate): low polyreactivity
--
biosequence: QVQLVESGGGLVQAGGSLRLSCAASGVIFLWYAMGWYRQAPGKERELVARISNGGSTYYADSVKGRFTISRDNAKNTVYLQMISLKPEDTAVYYCNKVYYWIAYGHRSYLMDYWGQGTQVTVSS
polyreactivity (PSR sort gate): high polyreactivity
--
biosequence: QVQLVESGGGLVQAGGSLRLSCAASGSIFRFYAMGWYIQAPGKERELVAAIRFSGGNTYYADSVKGRFTISCDNAKNTVYLQMNSLKPEDTAVYYCAKYRRVKPKRYDYDYWGQGTQVTVSS
polyreactivity (PSR sort gate): high polyreactivity
--
biosequence: QVQLVESGGGLVQAGGSLRLSCAASGSTFGRYVMGWYRQAPGKDRELVAAISKNAGSTYYADSVKGRFTISRDNAKNTVYLQMNSLKPEDTAVYYCAADWRTKGYDSLGQGTQVTVSS
polyreactivity (PSR sort gate): high polyreactivity

Would you mind giving polyreactivity (PSR sort gate) for every sequence in the list below?
1. QVQLVESGGGLLQAGGSLRLSCAASGSMFGLYAMGWYRQAPGKERELVAAISKSGGSTYYADSVKGRFTISRDNAKNTVYLQMNSLKPEDTAVYFCAARQYPRAGFDYWGQGTQVTVSS
2. QVQLVESGGGLVQAGGSLRLSCAASGSIYLYNAMGWYRQAPGKERELVAVINGRGGTYYADSVKGRFTISRDNAKNNVYLQMNSLKPEDTAVYYCATGYAPSAWYDSVRFEDRDSWGQGTQVTVSS
3. QVQLVESGGGLVQAGGSLRLSCAASGLIIPFYAMGWYRQAPGKERELVAAISWSAGSTYYADSVKGRFTISRDNAKNTVYLQMNCLKPEDTAVYYCAATAYYYYDYDYWGQGTQVTVSS
4. QVQLVESGGGLVQAGGSLRLSCAASGRTFYKYAMGWYRPAPGKERELVAAISGSGGGTYYADSVKGRFTISRDNAKNTVYLQMNSLKPEDTAVYYCAAVYLYYAYAFDYWGQGTHVTVSS
5. QVQLVESGGGLVQAGGSLRLSCAASGSIFDDYAMGWYRQAPGKERELVAAISWSGGRTYYADSVKGRFTISRDNAKTTVYLQMNSLKPEDTAVYDCAATTGVRSRRYYYWGQGTQVTVSS
6. QVQLVESGGGLVQAGGSLRLSCAASGIIFSHNVMGWYRQAPGKERELVAAITYSGGSTYYADSVKGRFTISRDNAKNTVYLQMNSMKPEDTAVYYCNAVTYSSPYRFDYWGQGTQVTVSS

["high polyreactivity", "low polyreactivity", "low polyreactivity", "high polyreactivity", "low polyreactivity", "low polyreactivity"]

Give polyreactivity (PSR sort gate) for each listed item.
1. QVQLVESGGGLVQAGGSLRLSCAASGIIFTSNTMGWYRQAPGKEREFVASINWNGSSTYADSVKGRFTISRDNAKNTVYLQMNSMKPEDTAVYYCNADYNRNSVQFSLYDYWGQGTQVTVSS
2. QVQLVESGGGLVQAGGSLRLSCAASGTFKWYAMGWYRQAPGKERELVAVISSSGGTTYYADSVKGRFTISRDNAKNTVYLQMNSLKPEDTAVYYCNVVKRRSDWGMDYWGQGTQVTVSS
3. QVQLVESGGGLVQAGGSLRLSCAASGRIFRRYAMGWYRQAPGKERELVAAISSRGGSTYYADSVKGRFTISRDNAKNTVYLQMNSLKPEDTAVYYCNADVSASEYDYWGQGTQVTVSS
4. QVQLVESGGGLVQAGGRLRLSCAASGRIFQHNTMGWYRQAPGKEREFVAAIRRSGGSTYYADSVKGRFTISRDNAKNTVYLQMNSLRPEDTAVYYCAARDYPTGTRRWGGGDSWGQGTQVTVSS

1. low polyreactivity
2. high polyreactivity
3. high polyreactivity
4. low polyreactivity

I am curious: what polyreactivity (PSR sort gate) value has been reported for QVQLVESGGGLVQAAGSLRLSCAASGLTFFGYAMGWYRQAPGKERELVAAISSSGTRTYYADSVKGRFTISRDHAKNTVYLQMNSLKPEDTAFYYCASGRYQEYDYWGQGTQVTVSS ?
high polyreactivity
